# target-of-assay: T1, Human GPR8 receptor protein (human, UniProt P48146 1-333)
# T1 construct: Full-length receptor expressed in CHO dhfr- cells (CHO/GPR8)
# T1 sequence (P48146 whole entry): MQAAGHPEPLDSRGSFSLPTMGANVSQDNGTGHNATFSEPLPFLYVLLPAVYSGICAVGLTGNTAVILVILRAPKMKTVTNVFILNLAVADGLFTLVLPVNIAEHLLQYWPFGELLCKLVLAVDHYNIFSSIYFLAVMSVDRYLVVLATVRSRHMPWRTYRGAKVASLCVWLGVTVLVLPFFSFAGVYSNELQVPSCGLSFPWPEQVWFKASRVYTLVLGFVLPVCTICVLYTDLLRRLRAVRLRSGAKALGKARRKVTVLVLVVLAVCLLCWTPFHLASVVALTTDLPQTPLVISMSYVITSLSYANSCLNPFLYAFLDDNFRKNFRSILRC
# test-description: competition with [125I-Tyr10]-hGPR8L(1-23), membrane fraction of GPR8 expressing CHO cells
No end group written: not given here.
observed-property: IC50 (nM)
Give your result in nM as a bare value.

# example entries with known answers
>>> quantitative_result("XYKHVASPRYHTVGRAAGLLMGL (D-Trp at position 1, also called [D-Trp^1]-hGPR8L(1-23)) [[D-Trp^1]-Human GPR8 ligand (1-23)]")
0.82
>>> quantitative_result("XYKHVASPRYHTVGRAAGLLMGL (N-alpha-acetyl on Trp 1, also called Ac-hGPR8L(1-23)) [[N^α-Acetyl-Trp^1]-Human GPR8 ligand (1-23)]")
2.4

Next:
Please give the measured IC50 for this binder: Ac-YKHVASPRYHTVGRAAGLLMGL (also called Ac-hGPR8L(2-23)) [[N-Acetyl-Tyr^2]-Human GPR8 ligand (2-23)]
420
